Assay: H1N1 influenza NS1A inhibitors, functional cell based assay (AID 504329)
Conditions: percent inhibition, at 12.5 µM, stronger effect = higher value
The whole screen tested about 340,000 compounds, of which about 1,000 (0.29%) were called active. A selection follows. Potency and affinity values are given separately.
Hi there, I'd appreciate the recorded inhibition for every entry that follows.
# output: bare number, implied unit %

Enquiry: Using known records, supply inhibition for COc1ccc(Cc2nc3ccccc3n2CC(=O)N/N=C/c2ccc(C)cc2O)cc1OC
Return: 1.09

Enquiry: Supply reported inhibition belonging to this molecule: COc1ccc(-c2c(C)nc3c(-c4ccc(F)cc4)cnn3c2N)cc1
Return: -14.5

Enquiry: Let me know recorded inhibition for COc1ccccc1NC(=O)/C(=C\c1cccs1)NC(=O)c1ccco1 , thanks.
Return: 2.01

Enquiry: Check the records and state inhibition for CCOc1ccc(C(=O)NCCN2CCCCC2)c(OCC)c1
Return: -19.7

Enquiry: # return recorded inhibition for input CCCOc1ccc(-c2nc(OCC)c3ccccc3n2)cc1
Return: -12.4

Enquiry: Annotate the molecule COc1ccc(/C=N/Nc2nnc(Cc3ccc(OC)c(OC)c3)c(=O)[nH]2)cc1 with its measured inhibition.
Return: 12.1

Enquiry: Please list inhibition recorded for the molecule O=C(NCC(c1ccco1)N1CCCCC1)c1ccc(S(=O)(=O)Nc2ccccc2)cc1 (stereo unspecified)
Return: -1.8

Enquiry: Read off the recorded inhibition for COc1ccc(Cc2nccc3cc(OC)c(OC)cc23)cc1OC
Return: 0.89

Enquiry: Using known records, supply inhibition for Cc1ccc2c(c1)oc(=O)n2CC(=O)c1ccccc1
Return: -20.6

Enquiry: Consider the molecule COc1ccc(/C=N/N=C2/NC(=O)C(c3ccccc3)(c3ccccc3)S2)cc1 and give its recorded inhibition.
Return: 9.74

Enquiry: Identify measured inhibition associated with CCCCC(=O)Nc1c2c(nn1-c1ccc(C)cc1)CS(=O)(=O)C2
Return: -7.59

====

Experiment: H1N1 influenza NS1A inhibitors, functional cell based assay (AID 504329)
Conditions: percent inhibition, at 12.5 µM, stronger effect = higher value
The whole screen tested about 340,000 compounds, of which about 1,000 (0.29%) were called active. The list is a sample of the results. Results with a measured potency or affinity are listed apart.
Parameter measured: inhibition (%)
Numeric answer only, unit % assumed.

Enquiry: Give me measured inhibition, please, for this molecule: CCN1C(=O)/C(=C2\SC(N3CCOCC3)=NC2=O)c2ccccc21
Return: 23.1

Enquiry: Specify reported inhibition for the molecule shown: Cc1ccccc1C(=O)NNC(=S)NC(=O)c1cccs1
Return: -2.01

Enquiry: Return the recorded inhibition value; entry: O=C(CN1CCN(S(=O)(=O)c2ccc(Br)cc2)CC1)N/N=C/c1cc([N+](=O)[O-])ccc1Cl
Return: -0.7

Enquiry: Indicate its recorded inhibition; the molecule in question is O=C(O)CNC(=O)CC1S/C(=N/N=C2/NC(=O)CS2)NC1=O (configuration not stated)
Return: 16.4

Enquiry: Quickly give me recorded inhibition for CCCCN1C(=O)/C(=C2\SC(N3CCOCC3)=NC2=O)c2ccccc21
Return: 8.19

Enquiry: Return value of inhibition for input Cc1nc2ccccc2c(=O)n1NC(=O)c1cc(Br)ccc1Cl , no commentary.
Return: 3.26

Enquiry: Respond only with inhibition recorded for COc1ccccc1NC(=O)CSc1n[nH]c(-c2cccnc2)n1
Return: 2.96

Enquiry: Dear colleague, please send me the reported inhibition for O=C(c1ccccc1F)N1CCCc2ccccc21 when you can.
Return: -3.09

Enquiry: State its inhibition for this molecule: O=C(CSc1n[nH]c(-c2cccnc2)n1)Nc1cccc(Cl)c1
Return: 0.29

Enquiry: Specify reported inhibition for the molecule shown: COc1cc(-c2nc(CN3CCN(CC(C)C)C(=O)[C@@H]3C)c(C)o2)ccc1F
Return: 8.73

Enquiry: Tell me measured inhibition for Cc1onc(-c2ccccc2)c1C(=O)NC(=S)NNC(=O)c1ccc(O)cc1 please.
Return: 22

Enquiry: Provide one value: measured inhibition of O=C(CSc1n[nH]c(-c2ccncc2)n1)Nc1ccccc1
Return: -1.24

Enquiry: Fill in inhibition for record COc1ccccc1CNC(=O)COC(=O)c1cccc(-n2cnnn2)c1
Return: -6.66

Enquiry: Supply measured inhibition of CCc1ccccc1NCC(=O)Nc1ccccc1C(=O)OC in your reply.
Return: -3.34

Enquiry: Provide only the value of recorded inhibition for CC12CCC(=O)N1C(C(=O)Nc1ccccc1N1CCOCC1)CS2 (configuration not stated)
Return: 1.95

Enquiry: // fetch inhibition given entry N#C/C(=C/c1ccc(-c2ccc(C(=O)O)c(Cl)c2)o1)C(=O)NCC1CCCO1 (configuration not stated)
Return: 9.84

Enquiry: Output inhibition of COc1ccccc1NC(=O)CSc1n[nH]c(-c2ccco2)n1
Return: -13

Enquiry: Report inhibition, nothing else, for this molecule: CC(=O)N1CCN(c2ccc(NCc3ccc(-c4cccc(Cl)c4)o3)cc2)CC1
Return: 23.9

Enquiry: Answer with the recorded inhibition for the molecule listed here: Cc1onc(-c2ccccc2)c1C(=O)NC(=S)NNC(=O)c1ccccc1O
Return: 20.2

Enquiry: Please indicate inhibition recorded for NC(=O)NC(=O)CC1S/C(=N/N=C2/NC(=O)CS2)NC1=O (configuration not stated)
Return: 5.04

Enquiry: Give a short answer stating reported inhibition for COc1ccc(Br)cc1/C=N/NC(=O)C(c1ccncc1)N1CCOCC1 (configuration not stated) .
Return: 2.7

Enquiry: Query inhibition for Cc1ccc2ncccc2c1
Return: -1.21

Enquiry: Please give the documented inhibition of COC(=O)c1ccc2c(c1)C(C)(C)C(/C=C/c1ccc(OC)c(OC)c1OC)=[N+]2C
Return: 4.08

Enquiry: Fill in reported inhibition for this entry: CC(=O)N1CCN(c2ccc(NCc3ccc(Br)o3)cc2)CC1
Return: 6.1

Enquiry: # return recorded inhibition for entry COc1ccc(C(=O)NCCSCc2cccc(Cl)c2)cc1OC
Return: -9.42

Enquiry: Identify the reported inhibition for the following entry. NC1=NC(=O)C(CC(=O)NCc2ccccc2)S1 (configuration not stated)
Return: 2.63

Enquiry: For CCc1nc(N2CCN(C(=O)c3ccccc3)CC2)c2c3c(sc2n1)CCCC3 , write its inhibition.
Return: 2.27

Enquiry: Provide measured inhibition value, entry: O=C(CSc1n[nH]c(-c2ccco2)n1)Nc1ccccc1F
Return: 2.4

Enquiry: Given the molecule CC(=O)N(C)c1ccc(N=Nc2ccc3ncccc3c2)cc1 , write its reported inhibition.
Return: 18.9

Enquiry: Tell me measured inhibition for O=C(N/N=C/c1cc([N+](=O)[O-])ccc1O)c1ccncc1 please.
Return: -34.5

Enquiry: Look up inhibition of CCN1CCCc2cc(CN(CCN3CCOCC3)C(=O)Nc3ccc(C)c(C)c3)ccc21 and report it.
Return: 22.9

Enquiry: Return inhibition (reported value) for this molecule: O=C(Cc1c[nH]c2ccccc12)NNCc1ccc(N(CCCl)CCCl)cc1
Return: 14.4

Enquiry: Return the recorded inhibition value; entry: O=C(CSc1n[nH]c(-c2cccnc2)n1)Nc1ccccc1
Return: -8.39

Enquiry: Tell us which inhibition value is on record for CCN1C(=O)/C(=C2\SC(N3CCCCC3)=NC2=O)c2ccccc21
Return: 14.1

Enquiry: Output measured inhibition for this item: Cc1ccc(/C=N/NC(=O)C(c2ccncc2)N2CCOCC2)cc1 (configuration not stated)
Return: 3.83

Enquiry: Supply reported inhibition belonging to this molecule: Nc1ccc2ncccc2c1
Return: 7.98

Enquiry: Tell me measured inhibition for O=C(O)c1ccccc1NS(=O)(=O)c1cccc2nsnc12 please.
Return: -1.24

Enquiry: # return recorded inhibition for input CCN(CC)CCn1c2ccccc2c2nc3ccccc3nc21
Return: -13.6

Enquiry: Answer with reported inhibition of Nc1ccc(N=Nc2ccccc2)cc1
Return: 10.5

Enquiry: Quickly give me recorded inhibition for O=C(c1cccc(C(F)(F)F)c1)C1CCCN(C(=O)c2cc(C3CC3)[nH]n2)C1 (configuration not stated)
Return: -9.76

Enquiry: Please report inhibition for the following molecule: O=C(CNC(=O)c1ccncc1)N/N=C/c1cc(Br)ccc1O
Return: 2.02

Enquiry: State, in one line, measured inhibition of CCOC(=O)C1CCCN(c2c(N3CCN(c4ccccn4)CC3)c(=O)c2=O)C1 (configuration not stated)
Return: 6.61

Enquiry: Input COc1ccccc1C(=O)NNC(=S)NC(=O)c1cccs1 , output reported inhibition.
Return: 8.16

Enquiry: Note inhibition for the molecule shown: COC(=O)c1ccc(O)cc1
Return: -1.72

Enquiry: Given the molecule COC(=O)c1ccc2nc(C)c(C)nc2c1 , write its reported inhibition.
Return: -1.98

Enquiry: Please indicate inhibition recorded for COc1ccc(C(=O)N/N=C/c2cc(Br)ccc2O)cc1OC
Return: -6.16

Enquiry: Give inhibition for O=C(NNC(=O)c1ccccc1O)c1ccco1
Return: -15.8

====

Assay: H1N1 influenza NS1A inhibitors, functional cell based assay (AID 504329)
Conditions: percent inhibition, at 12.5 µM, stronger effect = higher value
Among all 340,000 compounds or so, about 1,000 (0.29%) were called active. Only a sample is shown. Potency and affinity values are given separately.
Parameter measured: inhibition (%)
Write the answer as a number in %, unit excluded.

Enquiry: Let me know recorded inhibition for Cc1ccc(Nc2nc(N3CCOCC3)c3ccccc3n2)cc1 , thanks.
Return: 5.53

Enquiry: Tell me its inhibition given Cc1cccc(NC(=O)COc2ccc(/C=N\n3cnnc3)cc2)c1 as the entry.
Return: -2.09

Enquiry: Report inhibition, nothing else, for this compound: O=C(NCC(c1cccs1)N1CCOCC1)c1ccc(Cl)c(S(=O)(=O)N2CCOCC2)c1 (configuration not stated)
Return: -3.43

Enquiry: Assign inhibition to the following record: C/C(=N\NC(=O)c1cc(C)nc2ccccc12)c1ccncc1
Return: 7.15

Enquiry: Assign inhibition to the following record: CCn1nc(NS(=O)(=O)c2ccc([N+](=O)[O-])cc2)c2cc3ccccc3nc21
Return: 4.22

Enquiry: Look up and report measured inhibition for this entry: O=C(COc1c(Br)cc(Br)cc1Br)N/N=C/c1ccco1
Return: -0.44

Enquiry: Note inhibition for the compound shown: Cc1nn(-c2ccccc2)c(C)c1/C=C/C(=O)OCC(=O)Nc1ncc(Cl)cc1Cl
Return: -0.68

Enquiry: Identify measured inhibition associated with O=C(Nc1ccc([N+](=O)[O-])cc1Cl)c1cc(Cl)ccc1O
Return: 8.63

Enquiry: Answer with the recorded inhibition for the compound listed here: NNC(=O)c1cc(-c2cccs2)nc2ccccc12
Return: 25.3

Enquiry: Respond only with inhibition recorded for O=C(c1ccc(F)cc1)N1CCC(C(=O)N2CCN(S(=O)(=O)c3cccc(Cl)c3)CC2)CC1
Return: -5.53

Enquiry: Look up and state reported inhibition for CCOc1nc(SCCOc2ccccc2)nc(N(C)C)n1
Return: 21.4

Enquiry: Return reported inhibition. Input compound: CCOc1ccc(OCCC(=O)NNC(=O)c2ccccc2Cl)cc1
Return: -2.63

Enquiry: Note down inhibition recorded for C/C(=N\NC(=O)c1cc(C)nc2ccccc12)c1ccco1
Return: -1.27

Enquiry: State its inhibition: CS(=O)(=O)c1ccc(S(=O)CC(=O)OCc2ccccc2)c([N+](=O)[O-])c1 (configuration not stated)
Return: 11.4

Enquiry: Determine its reported inhibition: CCCN1CCC(=O)N(CCOc2ccccc2)CC1
Return: -8.48

Enquiry: Fill in inhibition for record O=C1NC(=O)c2cc3ccccc3cc21
Return: -8.8

Enquiry: Using the record for COC(C[C@H](O)C[C@@H](O)[C@H](C)OCc1ccccc1)OC , state its measured inhibition.
Return: -2.93

Enquiry: Consider the compound COc1cccc(NC(=O)COC(=O)c2ccco2)c1 and give its recorded inhibition.
Return: 7.2

Enquiry: Identify inhibition associated with the compound CN(C)/N=C/C=C1\CC/C(=C\c2ccc(Br)cc2)C1=O
Return: 5.12

Enquiry: Dear colleague, please send me the reported inhibition for CCOC(=O)c1[nH]c2c(c1-c1ccccc1)C(=O)CC(c1ccc(OC)c(OC)c1)C2 (configuration not stated) when you can.
Return: 8.75

Enquiry: Supply measured inhibition of Oc1ccc(/C=N/N(Cc2ccccc2)c2ccccc2)c(O)c1O in your reply.
Return: 19.2

Enquiry: Recall and state the measured inhibition for CCCCCC/C=C/c1ccc(OC)c([C@H]2[C@H]3C=CC[C@@H](C)[C@@H]3C(=O)N2Cc2ccccc2)c1 .
Return: 6.03
